# System: Helicoverpa armigera
# CONDITIONS USED: 500 μg/mL; 48 hours
REPORTED METRIC: mortality(%) Helicoverpa armigera (500 μg/mL)
Number in %, nothing else.

C=CCNC(=N[N+](=O)[O-])NN=Cc1ccccc1OC [Compound 76]; 40

Prompt: Consider the compound CC(C)C=NNC(=N[N+](=O)[O-])NCc1ccccc1 [Compound 7] and give its measured mortality(%) Helicoverpa armigera (500 μg/mL).
Response: 40

Prompt: Recorded mortality(%) Helicoverpa armigera (500 μg/mL) for CCC=NNC(=N[N+](=O)[O-])NCC [Compound 9] , please?
Response: 60

Prompt: Consider the compound shown here: CC=CC=NNC(=N[N+](=O)[O-])NCC [Compound 32] What is its recorded mortality(%) Helicoverpa armigera (500 μg/mL)?
Response: 0

Prompt: What value of measured mortality(%) Helicoverpa armigera (500 μg/mL) is listed for CCC=NNC(=N[N+](=O)[O-])NCCC [Compound 10] ?
Response: 80

Prompt: # get_value(readout='mortality(%) Helicoverpa armigera (500 μg/mL)', item= C=CCNC(=N[N+](=O)[O-])NN=CC(C)C [Compound 5] )
Response: 90
